Target: T1, SARS-CoV-2 spike protein (SARS-CoV-2, UniProt P0DTC2 14-1208)
T1 construct: also called SARS-CoV-2 S protein; antigen of interest
Assay: HT-SPR, Carterra LSA; mAb coupled to chip, antigen injected; 1:1 fit
The following binders are shown together with reported kon values.
// units = M⁻¹ s⁻¹; emit number, no label

Previously resolved entries follow.
BINDER	ENDPOINT UNIT	kon
antibody 562 (antibody, V domains shown) VH: QVQLVESGGGVVQPGRSLRLSCAASGFTFSSYAMHWVRQAPGKGLEWVAVISYDGSNKYYADSVKGRFTISRDNSKNTLYLQMNSLRAEDTAVYYCARASSGGYQGPFDPWGQGTLVTVSS VL: QSALTQPASVSGSPGQSITISCTGTSSDVGGYNYVSWYQQHPGKAPKLMIYDVSNRPSGVSNRFSGSKSGNTASLTISGLQAEDEADYYCSSYTSSSTLLYVFGTGTKVTVLG	M⁻¹ s⁻¹	548000
antibody 559 (antibody, V domains shown) VH: QVQLQESGPGLVKLSETLSLTCTVSGYSISSGYYWGWIRQPPGKGLEWIGSIYHSGSTYYNPSLKSRVTISVDTSKNQFSLKLSSVTAADTAVYYCAREETLGSSWYESYIDYWGQGTLVTVSS VL: SYVLTQPPSVSVAPGKTARITCGGNNIGSKSVHWYQQKPGQAPVLVIYYDSDRPSGIPERFSGSNSGNTATLTISRVEAGDEADYYCQVWDSSSDHPRVFGGGTKLTVL	M⁻¹ s⁻¹	19600
antibody 554 (antibody, V domains shown) VH: QVQLVESGGGVVQPGRSLRLSCAASGFTFSSYAMHWVRQAPGKGLEWVAVISYDGSNKYYADSVKGRFTISRDNSKNTLYLQMNSLRAEDTAVYYCARPQGGNYYYYGMDVWGQGTTVTVSS VL: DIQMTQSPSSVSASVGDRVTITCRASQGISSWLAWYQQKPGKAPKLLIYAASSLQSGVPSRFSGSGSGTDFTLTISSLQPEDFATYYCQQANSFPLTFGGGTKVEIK	M⁻¹ s⁻¹	271000
antibody 506 (antibody, V domains shown) VH: QITLKESGPTLVKPTQTLTLTCTFSGFSLSTSGVGVGWIRQPPGKALEWLALIYWDDDKRYSPSLKSRLTITKDTSKNQVVLTMTNMDPVDTATYYCAHHSLSSIFDYWGQGTLVTVSS VL: QSALTQPASVSGSPGQSITISCTGTSSDVGDYNYVSWYQQHPGKAPKLMIYEVSNRPSGVSNRFSGSKSGNTASLTISGLQAEDEADYYCSSYTSSSTVFGGGTKLTVLG	M⁻¹ s⁻¹	401000
antibody 513 (antibody, V domains shown) VH: QVQLVESGGGVVQPGRSLRLSCAASGFTFSSYAMHWVRQAPGKGLEWVAVISYDGSNKYYADSVKGRFTISRDNSKNTLYLQMNSLRAEDTAVYYCARAGSGSYYNWFDPWGQGTLVTVSS VL: QSALTQPASVSGSPGQSITISCTGTSSDVGGYNYVSWYQQHPGKAPKLMIYEVSNRPSGVSNRFSGSKSGNTASLTISGLQAEDEADYYCSSYTSSSTPYVFGTGTKVTVL	M⁻¹ s⁻¹	263000

Lab note: antibody 552 (antibody, V domains shown) VH: QVQLVQSGAEVKKPGSSVKVSCKASGGTFSSYGISWVRQAPGQGLEWMGRIIPILGIANYAQKFQGRVTITADKSTSTAYMELSSLRSEDTAVYYCARAVYAAGDDDYYYYYGMDVWGQGTTVTVSS VL: SYELTQPPSVSVSPGQTARITCSGDALPKQYAYWYQQKPGQAPVVVIYKDSDRPSGIPERFSGSSSGTTVTLTISGVQAEDEADYYCQSADSSGTYQVFGTGTKVSVL gave kon of 258000

Lab note: antibody 530 (antibody, V domains shown, also called mAb 530) VH: EVQLVESGGGLVQPGGSLRLSCAASGFTFSSYWMSWVRQAPGKGLEWVANIKQDGSEKYYVDSVKGRFTISRDNAKNSLYLQMNSLRAEDTAVYYCAREPQLWSEYYFDYWGQGTLVTVSS VL: DIQMTQSPSSLSASVGDRVTITCRASQGISSWLAWYQQKPEKAPKSLIYAASSLQSGVPSRFSGSGSGTDFTLTISSLQPEDFATYYCQQYNSYPPTFGQGTRLEIK gave kon of 95400

Lab note: antibody 558 (antibody, V domains shown) VH: QVQLVESGGGVVQPGRSLRLSCAASGFTFSSYAMHWVRQAPGKGLEWVAVISYDGSNKYYADSVKGRFTISRDNSKNTLYLQMNSLRAEDTAVYYCARGQGGGYYYGMDVWGQGTTVTVSS VL: QSALTQPASVSGSPGQSITISCTGTSSDVGGYNYVSWYQQHPGKAPKLMIYDVSNRPSGVSNRFSGSKSGNTASLTISGLQAEDEADYYCSSYTSSSTLYVFGTGTKVTVL gave kon of 378000

Lab note: antibody 520 (antibody, V domains shown, also called mAb 520) VH: QVQLVESGGGVVQPGRSLRLSCAASGFTFSSYAMHWGRQAPGKGLEWVAVISYDGSNKYYADSVKGRFTISRDNSKNTLYLQMNSLRAEDTAVYYCARDGGSGWLLVGNWFDPWGQGTLVTVSS VL: QSALTQPASVSGSPGQSITISCTGTSSDVGGYNYVSWYQQHPGKAPKLMIYDVSNRPSGVSNRFSGSKSGNTASLTISGLQAEDEADYYCSSYTSSITLYVFGTGTKVTVL gave kon of 43600

Lab note: antibody 501 (antibody, V domains shown) VH: QVQLVQSGAEVKKPGASVKVSCKASGYTFTSYYVHWVRQAPGQSLEWMGVISPSTGSTTYAQNFQGRVTMTRDTSTTTVYMELSSLRSEDTAVYYCARDDYYDSTRYFDLWGRGTLVTVSS VL: QSALTQPASVSGSPGQSISFSCTGTSSDIGAYNYVSWYQQHPGRAPKLMIYDVGNRPSGVSNRFSGSKSGNTASLTISGLQAEDEADYYCSSYTSSSTQVFGTGTKVTVL gave kon of 29800
